Source: PubChem BioAssay (NCI)

Test system: UACC-257 melanoma
RUN_DESCRIPTION: NCI tumour cell line growth inhibition, 48 h
MEASUREMENT_KIND: TGI (µM)

>>> result("COc1ccc(/C(CC2OC(=O)c3ccccc32)=N\\NC(=O)C[N+](C)(C)C)cc1 (stereo not given)")
91.8
>>> result("Nc1nc(Nc2ccccc2)sc1C(=O)c1cccs1")
32.5
>>> result("C[C@H]1[C@H]2[C@H]3CC[C@@H]4[C@@]5(C)C/C(=C/c6cccnc6)C(=O)C(C)(C)[C@@H]5CC[C@@]4(C)[C@]3(C)CC[C@]23CO[C@]1(C)[C@@H](C(=O)/C=C\\c1cccnc1)C3")
9.85
>>> result("CCc1ccc2c(c1)N(CCO)C1=C(C(=O)OC1)C2c1cccc(Cl)c1 (stereo not given)")
23.6
>>> result("COc1ccc2c(c1OC)OCC(CN(C)C)C2=O (stereo not given)")
30.8

----------
System: NCI-H460 lung
RUN_DESCRIPTION: NCI tumour cell line growth inhibition, 48 h
MEASUREMENT_KIND: TGI

>>> result("O=C1c2ccccc2-c2c1c1c(O)cccc1n2-c1ccccc1")
"> 100 µM"
>>> result("O=C(CCC(C(=O)c1ccccc1)c1ccccc1)c1ccccc1 (centres undefined)")
"> 100 µM"
>>> result("C[C@H]1[C@H]2[C@H]3CC[C@@H]4[C@@]5(C)C/C(=C/c6cccnc6)C(=O)C(C)(C)[C@@H]5CC[C@@]4(C)[C@]3(C)CC[C@]23CO[C@]1(C)[C@@H](C(=O)/C=C\\c1cccnc1)C3")
"1.94 µM"
>>> result("O=c1c2cc([N+](=O)[O-])ccc2nc2n1CCCCC2")
"> 100 µM"
>>> result("COc1cccc(Cc2cc(=O)c3ccc(C)nc3[nH]2)c1")
"> 100 µM"
>>> result("CCOC(=O)C1=CC(C)(C(=O)OCC)Nc2c(nc(OC)[nH]c2=O)N1 (centres undefined)")
"> 10 µM"
>>> result("Cc1ccc(-c2nc(N3CCCNCC3)c3oc(-c4ccccc4)nc3n2)cc1")
"3.5 µM"
>>> result("CCc1ccc2c(c1)N(CCO)C1=C(C(=O)OC1)C2c1cccc(Cl)c1 (centres undefined)")
"12.5 µM"
>>> result("COC(=O)/C=C(\\S/C(=N\\n1cc(C(=O)OC)c(C(=O)OC)c1-c1ccc(C)cc1)c1ccc(C)cc1)C(=O)OC")
"> 56.6 µM"

----------
System: K-562 leukemia
RUN_DESCRIPTION: NCI tumour cell line growth inhibition, 48 h
# Lookup of reported TGI keyed by entry
MEASUREMENT_KIND: TGI

>>> result("O=c1[nH]c(=O)n(C2CC(O)C(CO)O2)cc1OCC1CCCCC1 (stereo not given)")
"> 100 µM"
>>> result("O=[N+]([O-])c1c(C=Nc2ccccc2)oc(-c2ccc3c(c2)OCO3)c1-c1ccc2c(c1)OCO2")
"> 100 µM"
>>> result("CCCCCCCCCCCCOC1C(C(CC(=O)N2CCN(c3cccc(C(F)(F)F)c3)CC2)NS(=O)(=O)c2cc(Cl)cc(Cl)c2)OC2OC(C)(C)OC21 (stereo not given)")
"> 100 µM"
>>> result("Cc1cc(O)cc(C)c1/C=C/c1cncc(-c2nn[nH]n2)c1")
"> 25 µM"
>>> result("COc1ccccc1/C=C1\\CCC(CCN2CCOCC2)C1=O (stereo not given)")
"> 100 µM"
